Experiment: SUPPLEMENTARY: PAMPA permeability assay
Assay type: physicochemical
Conditions: read-out: Permeability
The following compounds are listed with their measured Papp values.
readout_name: Papp (×10⁻⁶ cm/s)

>  <compound_smiles>
O=C1CN(c2cccc(-c3noc([C@H]4CCCCN4C(=O)COc4ccccc4)n3)c2)C(=O)N1

>  <readout_name>
Papp

>  <test_value>
3.82

$$$$
>  <compound_smiles>
COc1ccc(Cl)cc1Cc1c[nH]c2ccc(C(=O)Nc3ccc(CC(=O)O)cc3)cc12

>  <readout_name>
Papp

>  <test_value>
0.43

$$$$
>  <compound_smiles>
NC(=O)COc1cccc(-c2noc([C@H]3CCCCN3C(=O)COc3ccccc3)n2)c1

>  <readout_name>
Papp

>  <test_value>
2.49

$$$$
>  <compound_smiles>
Cc1cc(C)cc(S(=O)(=O)N2CCS(=O)(=O)c3ccc(C(=O)Nc4ccc(C(=O)O)cc4)cc32)c1

>  <readout_name>
Papp

>  <test_value>
1.95

$$$$
>  <compound_smiles>
COc1ccc(Cl)cc1S(=O)(=O)N1COc2c(C)cc(C(=O)Nc3ccc(C(=O)O)cc3)cc21

>  <readout_name>
Papp

>  <test_value>
1.85

$$$$
>  <compound_smiles>
O=C1CN(c2cccc(-c3n[nH]c([C@H]4CCCCN4C(=O)COc4ccccc4)n3)c2)C(=O)N1

>  <readout_name>
Papp

>  <test_value>
1.92

$$$$
>  <compound_smiles>
O=C(O)c1ccc(NC(=O)c2cccc(S(=O)(=O)N3CCCc4ccc(C(F)(F)F)cc43)c2)cc1

>  <readout_name>
Papp

>  <test_value>
3.63

$$$$
>  <compound_smiles>
O=C(Nc1ccc(C(=O)O)c(F)c1)c1ccc2c(c1)N(S(=O)(=O)c1cc(Cl)cc(Cl)c1)CCC2

>  <readout_name>
Papp

>  <test_value>
4.82

$$$$
>  <compound_smiles>
Nc1cc(-c2n[nH]c([C@H]3CCCCN3C(=O)COc3ccccc3)n2)ccn1

>  <readout_name>
Papp

>  <test_value>
2.77

$$$$

---

Listing of entries alongside the reported IC50.
Molecular target: UniProt P18886
Sequence (P18886 whole entry): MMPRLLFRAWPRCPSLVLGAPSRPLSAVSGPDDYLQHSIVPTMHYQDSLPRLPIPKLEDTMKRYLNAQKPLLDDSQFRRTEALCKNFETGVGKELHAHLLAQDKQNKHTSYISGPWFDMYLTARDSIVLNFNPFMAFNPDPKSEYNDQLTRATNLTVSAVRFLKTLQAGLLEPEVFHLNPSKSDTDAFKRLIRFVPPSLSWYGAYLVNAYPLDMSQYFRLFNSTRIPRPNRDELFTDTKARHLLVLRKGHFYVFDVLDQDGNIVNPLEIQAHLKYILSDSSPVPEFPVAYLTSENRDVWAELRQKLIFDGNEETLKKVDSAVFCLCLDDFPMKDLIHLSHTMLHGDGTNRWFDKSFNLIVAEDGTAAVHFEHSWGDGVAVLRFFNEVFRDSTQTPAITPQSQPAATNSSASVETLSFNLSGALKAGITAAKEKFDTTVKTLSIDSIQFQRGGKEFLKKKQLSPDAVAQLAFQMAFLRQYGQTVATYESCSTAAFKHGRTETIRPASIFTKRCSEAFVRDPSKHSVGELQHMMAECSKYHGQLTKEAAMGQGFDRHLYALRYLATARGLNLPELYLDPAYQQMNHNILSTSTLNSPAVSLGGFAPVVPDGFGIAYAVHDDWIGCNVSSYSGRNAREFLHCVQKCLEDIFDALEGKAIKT
readout_name: IC50

>  <compound>
N#Cc1ccc(C#C[C@H]2CCCCN2C(=O)COc2ccccc2)cc1

>  <test_value>
> 100 µM

$$$$
>  <compound>
O=C(O)c1cccc(-c2nc([C@H]3CCCCN3C(=O)COc3ccccc3)cs2)c1

>  <test_value>
> 100 µM

$$$$
>  <compound>
CN1CCN(C(=O)COc2ccccc2)[C@@H](c2nc(-c3ccc4c(c3)CC(=O)N4)no2)C1

>  <test_value>
35 µM

$$$$
>  <compound>
Nc1cc(-c2noc([C@H]3CCCCN3C(=O)COc3ccccc3)n2)ccn1

>  <test_value>
35.2 µM

$$$$
>  <compound>
O=C(COc1ccccc1)N1CCCC[C@@H]1c1nc(-c2ccc3[nH]ncc3c2)n[nH]1

>  <test_value>
61.5 µM

$$$$
>  <compound>
COc1ccc(Cl)cc1Cc1c[nH]c2ccc(C(=O)Nc3nc(CC(=O)O)cs3)cc12

>  <test_value>
> 100 µM

$$$$
>  <compound>
COc1ccc(Cl)cc1S(=O)(=O)N1CC(C(=O)O)Cc2ccc(C(=O)Nc3ccccc3)cc21 (stereo unspecified)

>  <test_value>
> 100 µM

$$$$
>  <compound>
COc1ccc(Cl)cc1S(=O)(=O)N(c1cc(C(=O)Nc2ccc(CC(=O)O)cc2)cc2c1OCO2)C(C)C

>  <test_value>
> 100 µM

$$$$
>  <compound>
O=C(O)Cc1ccc(NC(=O)c2ccc3ccn(S(=O)(=O)c4cccc(Cl)c4)c3c2)cc1

>  <test_value>
> 100 µM

$$$$
>  <compound>
CN1CCN(C(=O)COc2ccccc2)[C@@H](c2nc(-c3cccc(C(F)(F)F)c3)n[nH]2)C1

>  <test_value>
> 100 µM

$$$$
>  <compound>
O=C(COc1ccccc1)NS(=O)(=O)Cc1ccc(-c2nc([C@H]3CCCCN3C(=O)COc3ccccc3)cs2)cc1

>  <test_value>
6.58 µM

$$$$
>  <compound>
COc1ccc(Cl)cc1S(=O)(=O)c1cn(C)c2ccc(C(=O)Nc3ccc(C(=O)O)cc3)cc12

>  <test_value>
4.27 µM

$$$$
>  <compound>
COc1ccc(Cl)cc1S(=O)(=O)N1CCc2ccc(C#Cc3ccc(C(=O)O)cc3)cc21

>  <test_value>
> 100 µM

$$$$
>  <compound>
COc1ccc(Cl)cc1S(=O)(=O)N1COc2ccc(C(=O)Nc3ccc(C(=O)O)c(Cl)c3)cc21

>  <test_value>
16 µM

$$$$
>  <compound>
COc1ccc(Cl)cc1S(=O)(=O)N1CCOc2c(Cl)cc(C(=O)Nc3ccc(CC(=O)O)cc3)cc21

>  <test_value>
> 100 µM

$$$$
>  <compound>
O=C(O)c1ccc(C(=O)Nc2nn(Cc3ccc(OC(F)F)cc3)c3ccc(F)cc23)cc1

>  <test_value>
> 100 µM

$$$$
>  <compound>
CCN(c1cc(C(=O)Nc2ccc(CC(=O)O)cc2)cc2c1OCO2)S(=O)(=O)c1cc(Cl)ccc1OC

>  <test_value>
> 100 µM

$$$$
>  <compound>
COC(=O)c1cccc(-c2nc([C@H]3CCCCN3C(=O)COc3ccccc3)sc2C)c1

>  <test_value>
> 100 µM

$$$$
>  <compound>
COc1ccc(Cl)cc1S(=O)(=O)N1CCS(=O)(=O)c2ccc(C(=O)Nc3ccc(C(=O)O)c(Cl)c3)cc21

>  <test_value>
15.7 µM

$$$$
>  <compound>
COc1ccc(Cl)cc1S(=O)(=O)N1COc2ccc(C(=O)Nc3ccn(CC(=O)O)n3)cc21

>  <test_value>
> 100 µM

$$$$
>  <compound>
O=C(COc1ccccc1)N1CCCC[C@@H]1c1nc(-c2ccncc2)cs1

>  <test_value>
31.6 µM

$$$$
>  <compound>
CCn1cc(S(=O)(=O)c2cc(Cl)ccc2OC)c2cc(C(=O)Nc3ccc(C(=O)O)cc3)ccc21

>  <test_value>
1.86 µM

$$$$
>  <compound>
COc1ccc(Cl)cc1S(=O)(=O)c1n[nH]c2ccc(C(=O)Nc3ccccc3)cc12

>  <test_value>
> 100 µM

$$$$
>  <compound>
COc1ccc(Cl)cc1S(=O)(=O)N1COc2c(F)cc(C(=O)Nc3ccc(CC(=O)O)cc3)cc21

>  <test_value>
> 100 µM

$$$$
>  <compound>
O=C(COc1ccccc1)N1CCCC[C@@H]1c1nc(-c2cccc(N3CCCS3(=O)=O)c2)no1

>  <test_value>
> 100 µM

$$$$
>  <compound>
COc1ccc(Cl)cc1S(=O)(=O)N1CCOc2c(C)cc(C(=O)Nc3ccc(C(=O)O)cc3)cc21

>  <test_value>
4.33 µM

$$$$
>  <compound>
O=C(COc1ccccc1)N1CCCC[C@@H]1c1noc(C2CCCC2)n1

>  <test_value>
> 100 µM

$$$$
>  <compound>
COc1ccc(Cl)cc1S(=O)(=O)N1C[C@@H](C)c2ccc(C(=O)Nc3ccc(C(=O)O)cc3)cc21

>  <test_value>
1.42 µM

$$$$
>  <compound>
O=C(O)c1ccc(NC(=O)c2ccc(Cl)c(NS(=O)(=O)c3cc(Cl)cc(Cl)c3)c2)cc1

>  <test_value>
> 100 µM

$$$$
>  <compound>
CCOC(=O)C1CN(S(=O)(=O)c2cc(Cl)ccc2OC)c2cc(C(=O)Nc3cccc(F)c3)ccc2O1 (stereo unspecified)

>  <test_value>
> 100 µM

$$$$
>  <compound>
Nc1ccc(-c2n[nH]c([C@H]3CCCCN3C(=O)COc3ccccc3)n2)cn1

>  <test_value>
66 µM

$$$$
>  <compound>
Nc1cc(-c2nc([C@H]3CCCCN3C(=O)COc3ccccc3)no2)ccn1

>  <test_value>
> 100 µM

$$$$
>  <compound>
COc1ccc(Cl)cc1CN1C(=O)CSc2ccc(C(=O)Nc3nc(CC(=O)O)cs3)cc21

>  <test_value>
> 100 µM

$$$$
>  <compound>
O=C(Nc1ccc(C(=O)O)c(F)c1)c1ccc2c(c1)N(S(=O)(=O)c1cc(Cl)cc(Cl)c1)CCC2

>  <test_value>
> 100 µM

$$$$
>  <compound>
CCN(c1cc(C(=O)Nc2nc(CC(=O)O)cs2)cc2c1OCO2)S(=O)(=O)c1cc(Cl)ccc1OC

>  <test_value>
> 100 µM

$$$$
>  <compound>
Cc1cc(-c2nc([C@H]3CCCCN3C(=O)COc3ccccc3)no2)[nH]n1

>  <test_value>
> 100 µM

$$$$
